meta.source: ChEMBL document CHEMBL1145894

assay-notes: Therapeutic index against HSV-2 (333)
experimental-conditions: herpes simplex virus; read-out: TI

# input-smiles, selectivity ratio
rows = [
    ("COc1cccc2c(O)c3c(O)cc(O)cc3nc12", 43),
]

* * *

assay-notes: Therapeutic index (vero CC50/ED50) against HSV-2
experimental-conditions: herpes simplex virus, Vero cells; read-out: TI

# input-smiles, sign, selectivity ratio
measured = [
    ("O=c1c2cc(Cl)ccc2[nH]c2cc(O)cc(O)c12", "=", 3.5),
    ("Oc1cc(O)c2c(O)c3cc(Cl)cc(Cl)c3nc2c1", ">", 8.3),
    ("COc1cccc2c(O)c3c(O)cc(O)cc3nc12", "=", 50),
    ("Nc1nc2c(ncn2COCCO)c(=O)[nH]1", ">", 160),
    ("Cc1cccc2c(O)c3c(O)cc(O)cc3nc12", "=", 2.1),
]

* * *

assay-notes: Therapeutic index against HSV-2 (186, c4)
experimental-conditions: herpes simplex virus; read-out: TI

# input-smiles, selectivity ratio
records = [
    ("COc1cccc2c(O)c3c(O)cc(O)cc3nc12", 25),
]

* * *

assay-notes: Therapeutic index against HSV-2 (186, c2)
experimental-conditions: herpes simplex virus; read-out: TI
recorded-metric: selectivity ratio

# input-smiles, quantitative-result
records = [
    ("COc1cccc2c(O)c3c(O)cc(O)cc3nc12", 50),
]

* * *

assay-notes: Therapeutic index (vero CC50/ED50) against HSV-1
experimental-conditions: herpes simplex virus, Vero cells; read-out: TI
We'd kindly ask you to apply these selectivity ratio classes: lo = under 3, mid = from 3 up to 7, hi = 7 and over

# molecule, class-name
measured = [
    ("O=c1c2cc(Cl)ccc2[nH]c2cc(O)cc(O)c12", "mid"),
    ("Nc1nc2c(ncn2COCCO)c(=O)[nH]1 [ACYCLOVIR]", "hi"),
    ("Cc1cccc2c(O)c3c(O)cc(O)cc3nc12", "mid"),
    ("Cc1cccc2nc3cc(O)cc(O)c3c(O)c12", "lo"),
    ("COc1cccc2c(O)c3c(O)cc(O)cc3nc12", "hi"),
    ("O=c1c2cccc(Cl)c2[nH]c2cc(O)cc(O)c12", "hi"),
    ("Oc1cc(O)c2c(O)c3cc(O)ccc3nc2c1", "lo"),
    ("O=C(O)CP(=O)(O)O [FOSFONET]", "hi"),
    ("O=c1c2ccccc2[nH]c2cc(O)cc(O)c12", "lo"),
]

* * *

assay-notes: Therapeutic index against HSV-1 (KOS)
experimental-conditions: herpes simplex virus; read-out: TI

# input-smiles, selectivity ratio
records = [
    ("COc1cccc2c(O)c3c(O)cc(O)cc3nc12", 14),
]

* * *

assay-notes: Therapeutic index against HSV-2 (G)
experimental-conditions: herpes simplex virus; read-out: TI
recorded-metric: selectivity ratio

# input-smiles, quantitative-result
data = [
    ("COc1cccc2c(O)c3c(O)cc(O)cc3nc12", 60),
]

* * *

Items are presented alongside their recorded selectivity ratio.
assay-notes: Therapeutic index (vero CC50/ED50) against HSV-1
experimental-conditions: herpes simplex virus, Vero cells; read-out: TI

# input-smiles, sign, selectivity ratio
records = [
    ("O=c1c2c(O)cc(O)cc2[nH]c2cccc(Cl)c12", "=", 7),
    ("Oc1cc(O)c2c(O)c3cc(Cl)cc(Cl)c3nc2c1", ">", 5),
    ("O=c1c2ccc(Cl)cc2[nH]c2cc(O)cc(O)c12", "=", 3),
]
